The reader will find reported pEC50 values listed item by item below.
Molecular target: human VDR (Homo sapiens)
Sequence (P11473 whole entry): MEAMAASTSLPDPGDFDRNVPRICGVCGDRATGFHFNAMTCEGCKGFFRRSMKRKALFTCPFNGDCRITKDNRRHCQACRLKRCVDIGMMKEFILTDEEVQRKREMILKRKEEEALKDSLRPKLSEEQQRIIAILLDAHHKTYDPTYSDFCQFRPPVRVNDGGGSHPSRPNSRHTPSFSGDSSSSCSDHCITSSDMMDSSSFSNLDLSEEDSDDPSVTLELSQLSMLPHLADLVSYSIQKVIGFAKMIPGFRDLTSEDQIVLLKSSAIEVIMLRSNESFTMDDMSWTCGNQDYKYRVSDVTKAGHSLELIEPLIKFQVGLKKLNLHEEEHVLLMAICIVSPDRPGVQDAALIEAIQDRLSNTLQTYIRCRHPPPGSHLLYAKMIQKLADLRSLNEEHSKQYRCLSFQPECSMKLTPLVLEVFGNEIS
Sequence (P19793 whole entry partner): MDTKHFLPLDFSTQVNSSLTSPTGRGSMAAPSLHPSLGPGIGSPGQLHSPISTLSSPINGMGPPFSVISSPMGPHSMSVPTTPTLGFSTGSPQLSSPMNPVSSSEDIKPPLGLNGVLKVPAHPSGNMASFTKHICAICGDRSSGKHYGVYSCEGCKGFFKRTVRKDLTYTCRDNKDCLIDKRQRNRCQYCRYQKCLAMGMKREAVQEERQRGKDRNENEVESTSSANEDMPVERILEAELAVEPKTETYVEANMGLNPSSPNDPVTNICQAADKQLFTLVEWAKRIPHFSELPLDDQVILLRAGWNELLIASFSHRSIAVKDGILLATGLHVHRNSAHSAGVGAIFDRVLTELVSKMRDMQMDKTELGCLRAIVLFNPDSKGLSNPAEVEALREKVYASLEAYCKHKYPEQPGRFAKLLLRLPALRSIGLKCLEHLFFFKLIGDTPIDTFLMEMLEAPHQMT
Experiment: Evaluation of VDR transcription activity in human osteoblasts (HOS cells), luciferase reporter
Conditions: Activity (EC50, VDR transcription activity), HOS cells transfected with human VDR, human RXRα and DR3 luciferase reporter; 21 hours
pEC50: −log10 of the molar value.

C[C@@H](CN1CC[C@H](C(F)F)C1)[C@H]1CC[C@H]2/C(=C/C=C3CC(O)C[C@H](O)C3)CCC[C@]12C (stereo in doubt) [Compound B099]	7.00 to 8.00

Name the reported pEC50 value associated with the molecule C[C@H](CN1CC[C@H](CC(F)F)C1)[C@H]1CC[C@H]2/C(=C/C=C3C[C@@H](O)C[C@H](O)C3)CCC[C@]12C [Compound B042]
7.00 to 8.00

What does the data say about its pEC50? Entry: C=C1C(O)CC(=C/C=C2\CCC[C@]3(C)[C@@H]([C@H](C)CN4CC[C@](C)(O)C4)CC[C@@H]23)C[C@H]1O (stereo in doubt) [Compound B073]
8.00 to 9.00

Consider the molecule C[C@H](CN1CCC[C@](C)(O)C1)[C@H]1CC[C@H]2/C(=C/C=C3C[C@@H](O)C[C@H](O)C3)CCC[C@]12C [Compound C039] and give its measured pEC50.
8.00 to 9.00

Would you mind telling me what pEC50 value was observed for C=C1/C(=C\C=C2/CCC[C@]3(C)[C@@H]([C@H](C)CN4CCC(O)(C(F)(F)F)CC4)CC[C@@H]23)C[C@@H](O)C[C@@H]1O [Compound C001] ?
8.00 to 9.00

For the molecule CCC1(O)CCCN(C[C@@H](C)[C@H]2CC[C@H]3/C(=C/C=C4C[C@@H](O)C[C@H](O)C4)CCC[C@]23C)C1 (single isomer, unassigned) [Compound C044a] , what pEC50 is on record?
7.00 to 8.00

What pEC50 value was documented for this molecule, C=C1/C(=C\C=C2/CCC[C@]3(C)[C@@H]([C@H](C)CN4CC[C@@H](OCC(F)F)C4)CC[C@@H]23)C[C@@H](O)C[C@@H]1O [Compound B054] ?
7.00 to 8.00

Return reported pEC50; argument: C=C1[C@H](O)CC(=C/C=C2\CCC[C@]3(C)[C@@H]([C@H](C)CCN4CC[C@H](C(C)(F)F)C4)CC[C@@H]23)C[C@H]1O [Compound B091]
8.00 to 9.00

Which value of pEC50 has been reported for C=C1[C@H](O)CC(=C/C=C2\CCC[C@]3(C)[C@@H]([C@H](C)CCN4CCOC[C@@H]4C)CC[C@@H]23)C[C@H]1O [Compound D032] in the records?
7.00 to 8.00

Can you look up the measured pEC50 of C=C1[C@H](O)CC(=C/C=C2\CCC[C@]3(C)[C@@H]([C@H](C)CN4CC[C@@H](CC(F)F)C4)CC[C@@H]23)C[C@H]1O [Compound B041] for me?
8.00 to 9.00

Which pEC50 is listed for C[C@@H](CN1CC[C@H](C(C)(F)F)C1)[C@H]1CC[C@H]2/C(=C/C=C3CC(O)C[C@H](O)C3)CCC[C@]12C (stereo in doubt) [Compound B101] ?
7.00 to 8.00
